Tested on: ICR mice
Test: Acute toxicity experiment of single oral administration in mice
Assay type: in vivo
Conditions: Day 5; male; 1000 mg/Kg single oral dose
Parameter: Daily Body Weight of Tested Male Mice (Mean ± SD). Scope: all listed entries.
PARAMETER_MEASURED: Daily Body Weight of Tested Male Mice (Mean ± SD)

{"columns": ["MOLECULE", "MEAS_VALUE"],
 "data": [
  ["COCCCN1C(=O)CCC(N2C(=O)c3ccc(N)cc3C2=O)C1=O (centres unmarked)", "28.1 ± 1.1 g"],
  ["COCCCN1C(=O)CCC(N2C(=O)c3cccc(N)c3C2=O)C1=O (centres unmarked)", "27.3 ± 1.3 g"],
  ["COCCN1C(=O)CCC(N2C(=O)c3cccc(C)c3C2=O)C1=O (centres unmarked)", "27.2 ± 1.3 g"],
  ["COCCN1C(=O)CCC(N2C(=O)c3c(N)ccc(O)c3C2=O)C1=O (centres unmarked)", "26.8 ± 0.9 g"],
  ["COCCN1C(=O)CCC(N2C(=O)c3cccc(F)c3C2=O)C1=O (centres unmarked)", "26.7 ± 0.4 g"]
]}

###

Test system: ICR mice
Test: Acute toxicity experiment of single oral administration in mice
Format: in vivo
Settings: Day 6; male; 1000 mg/Kg single oral dose
Parameter: Daily Body Weight of Tested Male Mice (Mean ± SD). Scope: all listed entries.
PARAMETER_MEASURED: Daily Body Weight of Tested Male Mice (Mean ± SD) (g)

{"columns": ["COMPOUND", "MEAS_VALUE"],
 "data": [
  ["Nc1cccc2c1C(=O)N(C1CCC(=O)N(CCO)C1=O)C2=O (centres unmarked)", 26.9],
  ["COCCN1C(=O)CCC(N2C(=O)c3c(N)ccc(O)c3C2=O)C1=O (centres unmarked)", 29.2],
  ["CS(=O)(=O)CCN1C(=O)CCC(N2C(=O)c3cccc(N)c3C2=O)C1=O (centres unmarked)", 28.3],
  ["CSCCN1C(=O)CCC(N2C(=O)c3cccc(N)c3C2=O)C1=O (centres unmarked)", 29.0],
  ["COCCN1C(=O)CCC(N2C(=O)c3cccc(NC(C)=O)c3C2=O)C1=O (centres unmarked)", 29.2]
]}

###

System: DSS-Induced inflammatory Bowel Disease Models in Mice
Assay: DSS-induced inflammatory bowel disease model in mice (Biological Example 4, 1.3% DSS)
Format: in vivo, C57BL/6 mice
Conditions: Day 0; 30 mg/Kg i.g. Q.D
Description: 40 healthy female C57BL/6 mice having weight of 16-19 g were randomly divided into 4 groups in accordance with weight. There were 10 mice in each group (see Table 6 below). The first day of the experiment was recorded as Day 0. The administration regimen and induction regimen were detailed in Table 6. The change in weight of experimental animals was recorded every day. […] Samples of animal colonic tissues were obtained to measure the length. […]
PARAMETER_MEASURED: Weights of Experimental Mice (Mean ± SD) (g)

{"columns": ["MOLECULE", "READING_UNIT", "MEAS_VALUE"],
 "data": [
  ["COCCCN1C(=O)CCC(N2C(=O)c3cccc(NC(C)=O)c3C2=O)C1=O (stereo not shown)", "g", 19.8],
  ["Nc1cccc2c1C(=O)N(C1CCC(=O)N(CCO)C1=O)C2=O (stereo not shown)", "g", 19.8],
  ["CCOCCN1C(=O)CCC(N2C(=O)c3cccc(N)c3C2=O)C1=O (stereo not shown)", "g", 19.6],
  ["CNc1cccc2c1C(=O)N(C1CCC(=O)N(CCOC)C1=O)C2=O (stereo not shown)", "g", 20.1]
]}

###

System: ICR mice
Test: Acute toxicity experiment of single oral administration in mice
Assay type: in vivo
Details: Day 5; female; 1000 mg/Kg single oral dose
PARAMETER_MEASURED: Daily Body Weight of Tested Female Mice (Mean ± SD) (g)

{"columns": ["COMPOUND", "READING_UNIT", "MEAS_VALUE"],
 "data": [
  ["CS(=O)(=O)CCN1C(=O)CCC(N2C(=O)c3cccc(N)c3C2=O)C1=O (stereo not drawn)", "g", 23.0],
  ["COCCN1C(=O)CCC(N2C(=O)c3cccc(O)c3C2=O)C1=O (stereo not drawn)", "g", 24.6],
  ["Nc1cccc2c1C(=O)N(C1CCC(=O)N(CCO)C1=O)C2=O (stereo not drawn)", "g", 22.3],
  ["CSCCN1C(=O)CCC(N2C(=O)c3cccc(N)c3C2=O)C1=O (stereo not drawn)", "g", 23.5],
  ["CCOCCN1C(=O)CCC(N2C(=O)c3cccc(F)c3C2=O)C1=O (stereo not drawn)", "g", 23.0],
  ["COCCN1C(=O)CCC(N2C(=O)c3c(N)ccc(O)c3C2=O)C1=O (stereo not drawn)", "g", 22.9],
  ["CCOCCN1C(=O)CCC(N2C(=O)c3cccc(N)c3C2=O)C1=O (stereo not drawn)", "g", 23.2],
  ["C[S+]([O-])CCN1C(=O)CCC(N2C(=O)c3cccc(N)c3C2=O)C1=O (stereo not drawn)", "g", 23.7],
  ["COCCN1C(=O)CCC(N2C(=O)c3cccc(C)c3C2=O)C1=O (stereo not drawn)", "g", 24.3]
]}

###

Parameter: Daily Body Weight of Tested Female Mice (Mean ± SD). Scope: all listed entries.
System: ICR mice
Test: Acute toxicity experiment of single oral administration in mice
Type: in vivo
Settings: Day 3; female; 1000 mg/Kg single oral dose
PARAMETER_MEASURED: Daily Body Weight of Tested Female Mice (Mean ± SD) (g)

{"columns": ["MOLECULE", "MEASURED_TARGET", "MEAS_VALUE"],
 "data": [
  ["CCOCCN1C(=O)CCC(N2C(=O)c3cccc(F)c3C2=O)C1=O (centres unmarked)", "ICR mice", 22.1],
  ["COCCCN1C(=O)CCC(N2C(=O)c3cccc(N)c3C2=O)C1=O (centres unmarked)", "ICR mice", 22.1],
  ["C[S+]([O-])CCN1C(=O)CCC(N2C(=O)c3cccc(N)c3C2=O)C1=O (centres unmarked)", "ICR mice", 22.6],
  ["COCCCN1C(=O)CCC(N2C(=O)c3ccc(N)cc3C2=O)C1=O (centres unmarked)", "ICR mice", 23.8],
  ["COCCN1C(=O)CCC(N2C(=O)c3cccc(C)c3C2=O)C1=O (centres unmarked)", "ICR mice", 23.4],
  ["COCCN1C(=O)CCC(N2C(=O)c3cccc(NC(C)=O)c3C2=O)C1=O (centres unmarked)", "ICR mice", 23.2],
  ["CS(=O)(=O)CCN1C(=O)CCC(N2C(=O)c3cccc(N)c3C2=O)C1=O (centres unmarked)", "ICR mice", 21.8],
  ["Nc1cccc2c1C(=O)N(C1CCC(=O)N(CCO)C1=O)C2=O (centres unmarked)", "ICR mice", 21.6],
  ["COCCN1C(=O)CCC(N2C(=O)c3cccc(F)c3C2=O)C1=O (centres unmarked)", "ICR mice", 23.2],
  ["CNc1cccc2c1C(=O)N(C1CCC(=O)N(CCOC)C1=O)C2=O (centres unmarked)", "ICR mice", 23.2],
  ["COCCN1C(=O)CCC(N2C(=O)c3c(N)ccc(O)c3C2=O)C1=O (centres unmarked)", "ICR mice", 22.4]
]}

###

System: DSS-Induced inflammatory Bowel Disease Models in Mice
Assay: DSS-induced inflammatory bowel disease model in mice (Biological Example 4, 1.3% DSS)
Assay type: in vivo, C57BL/6 mice
Conditions: Day 1; 30 mg/Kg i.g. Q.D
PARAMETER_MEASURED: Weights of Experimental Mice (Mean ± SD) (g)

{"columns": ["COMPOUND", "MEAS_VALUE"],
 "data": [
  ["CCOCCN1C(=O)CCC(N2C(=O)c3cccc(N)c3C2=O)C1=O (stereo not shown)", 19.6],
  ["Nc1cccc2c1C(=O)N(C1CCC(=O)N(CCO)C1=O)C2=O (stereo not shown)", 19.9],
  ["CNc1cccc2c1C(=O)N(C1CCC(=O)N(CCOC)C1=O)C2=O (stereo not shown)", 20.0],
  ["COCCCN1C(=O)CCC(N2C(=O)c3cccc(NC(C)=O)c3C2=O)C1=O (stereo not shown)", 19.9]
]}

###

Tested on: ICR mice
Assay: Acute toxicity experiment of single oral administration in mice
Type: in vivo
Conditions: Day 7; female; 1000 mg/Kg single oral dose
Parameter: Daily Body Weight of Tested Female Mice (Mean ± SD). Scope: all listed entries.
PARAMETER_MEASURED: Daily Body Weight of Tested Female Mice (Mean ± SD) (g)

{"columns": ["COMPOUND", "READING_UNIT", "MEAS_VALUE"],
 "data": [
  ["C[S+]([O-])CCN1C(=O)CCC(N2C(=O)c3cccc(N)c3C2=O)C1=O (centres unmarked) [Example 12]", "g", 25.7],
  ["COCCN1C(=O)CCC(N2C(=O)c3c(N)ccc(O)c3C2=O)C1=O (centres unmarked) [Example 10]", "g", 24.2],
  ["COCCN1C(=O)CCC(N2C(=O)c3cccc(C)c3C2=O)C1=O (centres unmarked) [Example 24]", "g", 24.8],
  ["CCOCCN1C(=O)CCC(N2C(=O)c3cccc(N)c3C2=O)C1=O (centres unmarked) [Example 19]", "g", 23.0],
  ["COCCN1C(=O)CCC(N2C(=O)c3cccc(F)c3C2=O)C1=O (centres unmarked) [Example 4]", "g", 24.0]
]}
